This section presents compounds with their documented pKa values.
- testConditions: basic group
assayMetric: pKa

{"columns": ["itemSmiles", "assayMetric", "measuredValue"],
 "data": [
  ["[O-]c1[nH+]ccc2c1cnc1ccccc12", "pKa", 4.1],
  ["CNCCc1ccc(O)c(O)c1", "pKa", 8.84],
  ["C[C@@H]1C[C@H](OC(=O)c2ccccc2)CC(C)(C)N1", "pKa", 8.97]
]}

====

This section presents compounds with their documented pKa values.
- testConditions: basic group

{"columns": ["compound", "pKa"],
 "data": [
  ["NC(Cc1cccnc1)C(=O)[O-] (centres undefined)", 9.26],
  ["CN(C)c1ncnc2c1cnn2C", 4.06],
  ["Clc1cccnc1", 2.77],
  ["CC1(C)CC(Nc2ccccc2)=C/C(=N/c2ccccc2)C1", 9.89],
  ["CCC(C)(C)N", 10.9],
  ["N[C@H]1CCCC[C@@H]1C(=O)[O-]", 10.1],
  ["Nc1cccc2c1ccc1ncccc12", 5.2],
  ["COC(=O)c1nc2cc(Cl)ccc2[nH]1", 0.3],
  ["[NH3+]CCC(=O)N[C@@H](Cc1cnc[nH]1)C(=O)[O-]", 6.74],
  ["CNC(=O)/C=C(\\c1ccc2nc(N)n(C(C)C)c2c1)c1cccc(F)c1F", 6.69],
  ["NC(=O)C(N)Cc1c[nH]c2ccccc12 (centres undefined)", 7.55],
  ["CN(C)CCCN", 10],
  ["Cc1ccccc1NC(C)(C)C", 6.49],
  ["CCNC(N)=O", 1.19],
  ["N[C@H]1C[C@@H]2CCCC[C@H]2C[C@@H]1N", 9.97],
  ["CC1=C(CC(C)[NH2+]CC(O)c2ccc(N)cc2)CCC1(C)C (centres undefined)", 3.69],
  ["COc1ccccc1/C(=N/CCC[NH+](C)C)c1ccccc1", 4.62],
  ["CN(CCCN)CCC[NH3+]", 9.27],
  ["O=[N+]([O-])c1ccc([O-])c(CN2CCOCCOCCOCCOCCOCC2)c1", 9.59],
  ["Cc1n[nH]c2ccc(N)cc12", 5.25],
  ["O/N=C/c1ccccc1O", 1.37],
  ["C1CCN(CC[NH+]2CCCCC2)CC1", 6.12],
  ["CCCCCCN", 10.7],
  ["CNCCNC", 10.1],
  ["O=Cc1cccnc1", 3.73],
  ["Nc1ccc([N+](=O)[O-])c(F)c1", -0.3],
  ["NC(=S)NCc1ccccc1", 0.86],
  ["Cn1c(-c2ccccn2)[nH+]c2ccccc21", -1.27],
  ["Cc1ccc(Nc2ccccc2)cc1", 1.16],
  ["Oc1cncc2ccccc12", 4.8],
  ["Nc1cccc2cncnc12", 2.81],
  ["COc1ccc2c3c1O[C@H]1[C@@H](O)C=C[C@H]4[C@@H]([C@H]2O)N(C)CC[C@@]341", 7.12],
  ["[NH3+]CCCNCCC[NH3+]", 8.08],
  ["Nc1ccc([NH3+])c(N)c1", 3.69],
  ["[S-]c1ccncn1", 6.7],
  ["NCC1CCCCC1", 10.5],
  ["CN(C)CC#N", 4.5],
  ["NC(=S)C[NH3+]", -8.39],
  ["C[C@@H]1CC[C@H]2CC[C@H](C)N21", 11.5],
  ["CN(C)CCOC(C)(c1ccccc1)c1ccccc1", 8.75],
  ["CC[C@]12CCCN3CC[C@@]4(c5cccc(OC)c5N[C@H]4CC1)[C@@H]32", 8.46],
  ["Cc1cncc(C)c1", 6.15],
  ["CCCc1cccnn1", 3.59],
  ["CCN(CC)Cc1cc(OC)ccc1O", 8.62],
  ["COc1ccc2ccc(OC)c(N3CCOCC3)c2c1N1CCOCC1", 13],
  ["NCCC(=O)c1ccccc1", 8.3],
  ["CCCCNCC(=O)Nc1c(C)cccc1C", 8.04],
  ["N[C@H]1CCCC[C@@H]1N", 9.75],
  ["Cc1nc(N)c2cnn(C)c2n1", 5],
  ["C[NH2+]CCCN", 8.66],
  ["C[NH+](C)CCC/N=C(\\c1ccccc1)c1cccc2ccccc12", 4.16],
  ["C[C@@H]1CCN2CC=C[C@H]12", 10.6],
  ["CC1CCN(O)C1(C)C (centres undefined)", 5.9],
  ["CCCCCCCCCCCCN(CC(C)O)CC(O)CC (centres undefined)", 6.2]
]}

====

- testConditions: basic group
Rule: pKa under 7 gives 0 (no), otherwise 1 (yes).

{"columns": ["compound", "labelClass"],
 "data": [
  ["CCCCCCCCCNCc1ccc(C)cc1", "1 (yes)"],
  ["Cn1cnc2c([O-])ncnc21", "1 (yes)"],
  ["[O-]c1ncnc2[nH]cnc12", "1 (yes)"],
  ["O=C(Cc1ccccc1)C(CN1CCOCC1)c1ccccc1 (centres undefined)", "0 (no)"],
  ["CC(C)Nc1ncnc2c1cnn2C", "0 (no)"],
  ["CCOCCNc1cccc(C)c1", "0 (no)"],
  ["SCCNCCc1ccccc1", "1 (yes)"],
  ["O=C([O-])CCCc1c[nH]cn1", "1 (yes)"],
  ["NNC(=O)c1ccccc1", "0 (no)"],
  ["NCCCCCCCCCCCCN", "1 (yes)"],
  ["Cc1c(Cn2ccnc2)sc2ccc(C(=O)[O-])cc12", "0 (no)"],
  ["CN(C)c1cccc2c(S(=O)(=O)[N-]CCN3CCNCCNCCNCC3)cccc12", "1 (yes)"],
  ["CC(C)N/C=N/c1ccc(-c2cn(C)cn2)cc1", "1 (yes)"],
  ["NC(=O)c1cccnc1", "0 (no)"],
  ["CCn1ccnc1C", "1 (yes)"],
  ["NC1CC1", "1 (yes)"],
  ["CC1NCCCN1", "1 (yes)"],
  ["O/C(=C/c1ccccn1)c1ccccc1", "0 (no)"],
  ["CC(C)(C)CC(C)(C)N", "1 (yes)"],
  ["CCCCCCCCCCCCCCCCCCN(CC(O)CC)CC(O)CC (centres undefined)", "0 (no)"],
  ["CC(C)(C)N1NC2CCC1C2 (centres undefined)", "1 (yes)"],
  ["NCCC(=O)N[C@@H](Cc1cnc[nH]1)C(=O)[O-]", "1 (yes)"],
  ["COc1ccc(O)c(/N=N/c2nc(C)cs2)c1", "0 (no)"],
  ["Cc1nccnc1C", "0 (no)"],
  ["CCCCCC/[NH+]=C/c1c(C)cnc(C)c1O", "0 (no)"],
  ["C(=N\\c1ccccc1)/Nc1ccccc1", "0 (no)"],
  ["Cn1cccnc1=N", "1 (yes)"],
  ["CCn1cncn1", "0 (no)"],
  ["Cc1cc2nc3ccc(N(C)C)cc3[nH+]c2cc1N", "0 (no)"],
  ["NC[C@@H](O)[C@H]1NC(N)=[NH+][C@@H]1C(=O)[O-]", "1 (yes)"],
  ["CC(C)C(N)C(=O)O (centres undefined)", "1 (yes)"],
  ["C(=C\\c1ccncc1)/c1ccncc1", "0 (no)"],
  ["COc1ccc(-c2cnc(-c3ccccc3)o2)cc1", "0 (no)"],
  ["Nc1ccc2c(c1)CCCC2", "0 (no)"],
  ["N#CCCNc1ccccc1", "0 (no)"],
  ["O=C([O-])c1ccc2ncccc2c1", "0 (no)"],
  ["[O-]c1nc([O-])c2[nH]nnc2n1", "1 (yes)"],
  ["Cc1cc([O-])nc([O-])[n+]1C", "1 (yes)"],
  ["CN(C)/C=N/c1ccccc1Br", "0 (no)"],
  ["O=C([O-])[C@@H]1O[C@H](Oc2ccc3cccnc3c2)[C@@H](O)[C@H](O)[C@H]1O", "0 (no)"],
  ["c1cc(N2CCOCC2)ccc1N1CCCCC1", "0 (no)"],
  ["CC(C)N/C=[NH+]/c1ccc(-c2c[nH]cn2)cc1", "0 (no)"],
  ["CCNCC(=O)N(CC)CC", "1 (yes)"],
  ["[NH3+]c1ccc(-c2nc3ccccc3s2)cc1", "0 (no)"],
  ["Cc1ccc(N)cc1-c1cc([NH3+])ccc1C", "0 (no)"],
  ["CCN(CC)CCN", "1 (yes)"],
  ["COc1cc(OS(C)(=O)=O)ccc1-c1cn2cccnc2n1", "0 (no)"],
  ["Clc1ccc(-c2ccc(Cl)cn2)nc1", "0 (no)"],
  ["Cc1ccc(N)nc1", "1 (yes)"],
  ["C[n+]1nc(-c2ccccc2)ccc1NCCN1CCOCC1", "0 (no)"],
  ["[S-]c1cnc2ccccc2[nH+]1", "0 (no)"],
  ["NCC(=O)[O-]", "1 (yes)"],
  ["Cn1nccc1N", "0 (no)"],
  ["CCN(CC)/N=C(\\N)CC[Si](C)(C)C", "1 (yes)"],
  ["Cc1cc(-c2ncc[nH]2)nn1C", "0 (no)"],
  ["COC1CC2CCN1CC2 (centres undefined)", "1 (yes)"]
]}
